- System: HCT-116
- MEASUREMENT DESCRIPTION: NCI tumour cell line growth inhibition, 48 h
Calls of active or inactive are those of the source. Rule as the data show it: active = GI50 up to about 1.1 µM and inactive = higher.
Provide the recorded GI50 for the entries that follow.

Answer with reported GI50 of O=C1CC(C(=O)O)Cc2c(Br)ccc(O)c21 (stereo unspecified)
> 100 µM (inactive)

Answer with reported GI50 of CCCC(=O)Nc1cc(/C=C/C(=O)N2CC(CCl)c3c2cc(O)c2[nH]cc(C)c32)n(C)c1 (stereo unspecified)
< 2.5e-05 µM (active)

Answer with reported GI50 of `CCOC(=O)CN1CCS/C1=N/C#N`
> 100 µM (inactive)

Answer with reported GI50 of `Cc1nnc(CC#N)n1NC(=O)CC#N`
> 100 µM (inactive)

Answer with reported GI50 of `N#C/C(C(=O)NCc1ccccc1)=C(/N)N1CCCC1`
> 100 µM (inactive)

Answer with reported GI50 of Cc1ccc(/C=C2\CN(C)CC3C2=NN(c2ccccc2)C3c2ccc(C)cc2)cc1 (stereo unspecified)
> 100 µM (inactive)

Answer with reported GI50 of `O=C(O)CN1C(=O)c2ccc(NC(=O)C(=O)O)cc2S1(=O)=O`
> 100 µM (inactive)

Answer with reported GI50 of O=C(NC(CS)C(=O)O)c1cccc2c(=O)c3ccccc3[nH]c12 (stereo unspecified)
> 100 µM (inactive)

Answer with reported GI50 of `S=C=Nc1ccc(CSc2nc3ccccc3[nH]2)cc1`
24 µM (inactive)

Answer with reported GI50 of `Cc1c(NC(=O)CCl)c(=O)oc2c(C)c3occc(=O)c3cc12`
11.6 µM (inactive)

Answer with reported GI50 of `Nc1nc(CC2(O)CCCCC2)cc(-c2ccccc2)n1`
19.8 µM (inactive)

Answer with reported GI50 of CCNC(=O)C(C)C1CCC2(C)C=CC(=O)C(C)=C2C1O (stereo unspecified)
> 100 µM (inactive)

Answer with reported GI50 of C=C(C)C(=O)OC1C[C@H](COC(C)=O)C2CC=C(C)C2C2OC(=O)C(=C)[C@H]12 (stereo partly specified)
1.67 µM (inactive)

Answer with reported GI50 of O=C(CCN1CCCC1)CC(c1ccccc1)c1c(O)c2ccccc2oc1=O (stereo unspecified)
> 100 µM (inactive)

Answer with reported GI50 of `CC(=O)Nc1nnc(S(=O)(=O)NC(=S)Nc2ccc(Cl)cc2)s1`
> 100 µM (inactive)

Answer with reported GI50 of `O=C1OC(c2ccccc2)=N/C1=C\c1cccc2ccccc12`
> 100 µM (inactive)

Answer with reported GI50 of `CC(C)(O)CCc1ccc(O)c2c(=O)c3c(O)c4c(cc3oc12)O[C@H]1OC=C[C@@]41O`
0.0199 µM (active)

Answer with reported GI50 of CCN(CC)CC(C)C(=O)/C=C/c1ccc(C)cc1 (stereo unspecified)
1.73 µM (inactive)

Answer with reported GI50 of `Cc1cc(O)c2c3c(ccc2c1)C(=O)c1c(O)cccc1C3=O`
11.2 µM (inactive)

Answer with reported GI50 of `COc1ccc(CNc2nc(NCc3ccc(OC)cc3)nc(NC(C)C)n2)cc1`
3.18 µM (inactive)

Answer with reported GI50 of `COc1ccc(/N=C/C=C/Nc2ccc(OC)cc2)cc1`
3.66 µM (inactive)

Answer with reported GI50 of `c1ccc2c(c1)c(N1CCCCC1)cc1nc3c(cc(N4CCCCC4)c4ccccc43)nc12`
> 100 µM (inactive)

Answer with reported GI50 of `COc1cc2c(cc1OC)C(=O)/C(=C/c1ccccc1)CC2`
23.8 µM (inactive)

Answer with reported GI50 of `COc1cc2c(cc1O)NC(=O)[C@@H]1C[C@@H](O)CN1C2=O`
49 µM (inactive)

Answer with reported GI50 of `Cc1cc(NCCCCCCCCCC[n+]2c(C)cc(N)c3ccccc32)c2ccccc2n1`
0.209 µM (active)

Answer with reported GI50 of `O=C1C(Cl)=C(Oc2ccc([N+](=O)[O-])cc2)C(=O)c2c(O)ccc(O)c21`
49.3 µM (inactive)

Answer with reported GI50 of CCCCN(CCCC)CCC(O)c1cc(-c2ccc(C(F)(F)F)cc2)nc(-c2ccc(C(F)(F)F)cc2)c1 (stereo unspecified)
> 100 µM (inactive)

Answer with reported GI50 of NCC(=O)C(O)C(O)C(O)CO (stereo unspecified)
> 100 µM (inactive)

Answer with reported GI50 of `O=[N+]([O-])c1ccc(/C=C/c2ccc(/C=C/c3ccc([N+](=O)[O-])cc3[N+](=O)[O-])cc2)c([N+](=O)[O-])c1`
> 100 µM (inactive)

Answer with reported GI50 of `CCn1c(O)c(C(=O)Nc2cccs2)c(=O)n(CC)c1=S`
19.2 µM (inactive)

Answer with reported GI50 of `NC(=O)NC12CC3CC(CC(F)(C3)C1)C2`
> 100 µM (inactive)

Answer with reported GI50 of NC(=O)NOCC1NC(=O)NC1=O (stereo unspecified)
> 100 µM (inactive)

Answer with reported GI50 of `CCCCOCOc1ccccc1P1(=O)COc2ccccc2OC1`
62.5 µM (inactive)

Answer with reported GI50 of COC(=O)[C@@H]1[C@H](OC(C)=O)CCC2[C@@]3(C[C@@H](c4ccoc4)O[C@@H]3OC)[C@H](C)CC[C@]21C(=O)OC (stereo partly specified)
> 25 µM (inactive)

Answer with reported GI50 of `C=CCn1c(=O)c(C(=O)NC(=O)OCC)cn(C2CCCCC2)c1=O`
> 100 µM (inactive)

Answer with reported GI50 of COC(=O)C1(C)CCc2c(OC)ccc(OC)c2C1=O (stereo unspecified)
> 100 µM (inactive)
